Field pKi: reported value for Substance-K receptor (Homo sapiens, UniProt P21452); entries drawn from several documents.
Biological target: Substance-K receptor (Homo sapiens, UniProt P21452)
Sequence (P21452 whole entry): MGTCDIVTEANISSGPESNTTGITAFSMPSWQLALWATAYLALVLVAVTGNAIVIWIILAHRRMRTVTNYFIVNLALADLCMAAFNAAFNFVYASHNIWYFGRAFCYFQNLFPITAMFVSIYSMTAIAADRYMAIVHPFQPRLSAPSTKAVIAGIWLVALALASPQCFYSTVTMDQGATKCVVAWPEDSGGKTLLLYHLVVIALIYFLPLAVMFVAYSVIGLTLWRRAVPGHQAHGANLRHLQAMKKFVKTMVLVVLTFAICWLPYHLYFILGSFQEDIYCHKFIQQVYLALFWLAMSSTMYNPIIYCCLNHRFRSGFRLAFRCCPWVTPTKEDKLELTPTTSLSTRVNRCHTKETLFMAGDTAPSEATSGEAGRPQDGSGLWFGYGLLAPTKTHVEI
pKi: −log10 of the molar value.

* CCOC(=O)C1=C(C)OC2OC(COCc3ccccc3)C(O)C(OCc3ccccc3)C2[S+]1[O-] (centres undefined) | < 5.00
* O=C(N[C@H](Cc1ccccc1)C(=O)NCCCN1CCOCC1)c1cccc(-c2ccccc2)c1 | < 5.00
* O=C(NCCCN1CCOCC1)[C@H](Cc1ccccc1)NC(=O)N1CCN(c2ccccc2)CC1 | < 5.52

Please turn your attention to the following entry.
Prompt: Query: pKi; subject: CO/N=C(\COCc1cc(C(F)(F)F)cc(C(F)(F)F)c1)C(CCN1CCN(CC(=O)NC2CCc3ccccc32)CC1)c1ccc(Cl)c(Cl)c1 (centres undefined)
Response: < 6.17
